Reference for the values: the supplement of paper PMC10567573

B1: TIA1 (parent)
chain: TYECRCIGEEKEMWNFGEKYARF

# Variants of: B1
# EXPERIMENTAL PROTOCOL: protein stability index of a GFP-peptide fusion (GPS, HEK-293T) (PSI 1-6); higher = more stable;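 also: lentivirally expressed fusions sorted by FACS into six bins by GFP to DsRed ratio, PSI derived from sequencing read proportions per bin multiplied by bin number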
# ASSAY SETUP: c terminus: native
PROPERTY NAME: protein stability index
Give the figure by itself; no unit, no explanation.

Record excerpt, results attached:
{"MUTANT DESIGNATION": "W14F", "protein stability index": 2.39}
{"MUTANT DESIGNATION": "C6P", "protein stability index": 3.72}

Please give the measured protein stability index for this variant: "E10G"
1.86

Please give the measured protein stability index for this variant: "R5W"
1.98

Please give the measured protein stability index for this variant: "K11C"
3.31

Please give the measured protein stability index for this variant: "F23M"
2.54

Please give the measured protein stability index for this variant: "E18N"
1.79
